System: M14 melanoma
protocol_description: NCI tumour cell line growth inhibition, 48 h
readout: TGI (µM)
Numbers only here, please. The scale is µM.

record_smiles | assay_system | TGI (µM)
O=c1oc2ccc(I)cc2c(=O)n1-c1ccc(Cl)cc1F | M14 melanoma | 7.87

Pending compound:
Challenge: Output measured TGI for this item: `NS(=O)(=O)c1cccc(NC(=S)NC(=O)Nc2ccc(Cl)c(Cl)c2)c1`
Response given: 28.2

---

Let's look at some compounds and their measured TGI.
Tested on: SK-MEL-28 melanoma
protocol_description: NCI tumour cell line growth inhibition, 48 h

Solved cases below.
compound | TGI
COC(=O)C1(Cc2ccc3c(c2)CCC3)Cc2ccccc2C1 | > 100 µM
O=c1[nH]c(=O)n(C2CC(O)C(CO)O2)cc1OCc1ccccc1 (configuration not stated) | > 100 µM
C(=N\Nc1nnn(Cc2ccccc2)n1)/c1ccccc1 | > 100 µM
CCCCN(CCCC)C(=O)/C(CC(=O)c1cccc2ccccc12)=N\NC(=O)c1cc2ccccc2cc1O | > 100 µM
C=C1C(=O)O[C@H]2[C@H]1CC/C(C=Nc1c(N)cc(C(F)(F)F)cc1Br)=C\CC[C@@]1(C)O[C@@H]21 | 3.66 µM
OCc1ccc2c(c1)CC1(Cc3ccc(/C=N/O)cc3C1)C2 (configuration not stated) | > 100 µM
CCOC(=O)/C(O)=C1\C(=O)N(C)C(=O)C1c1cccc(OC)c1 (configuration not stated) | > 100 µM
CC(=O)N1CCC2(c3ccccc3N(C(C)=O)C2c2ccc(O)cc2)C1C(=O)O (configuration not stated) | > 100 µM

Challenge: Please indicate recorded TGI of c1ccc(N2N=C(c3ccco3)CC2c2ccco2)cc1 (configuration not stated) measured with SK-MEL-28 melanoma.
Response given: > 100 µM

Challenge: Please indicate recorded TGI of `Cc1ccc(/C=C2\Cc3c(C)cc(C)cc3C2=O)c(C(=O)O)c1` measured with SK-MEL-28 melanoma.
Response given: > 100 µM

---

Test system: RXF 393 renal
protocol_description: NCI tumour cell line growth inhibition, 48 h; in the data active means GI50 below about 0.43 µM; inactive means the rest
Result category, one only: Y = active, N = inactive

Examples with answers:
compound | answer_label
C=C(CN(C)C)C(=O)c1ccccc1[N+](=O)[O-] | N
C[C@H]1CCCC(O)C(O)[C@@H]2C[C@H](O[Si](C)(C)C(C)(C)C)C[C@H]2[C@H](O[Si](C)(C)C(C)(C)C)C(O)C(O)C(=O)O1 (stereo partly specified) | N
O=C1OCC2=C1C(c1ccccc1)c1cc3c(cc1N2CCO)OCO3 (stereo unspecified) | N
COc1ccc(C(=O)c2ccc([As]=O)cc2)cc1 (stereo unspecified) | Y
CCNC(=O)c1noc(-c2cc(C(C)C)c(O)cc2O)c1-c1ccc(CN2CCOCC2)cc1 | Y

Challenge: What is the recorded call for this compound in the test? `CN(C)C(=O)O[C@H]1CN[C@H](C#Cc2cc3ncnc(Nc4ccc(OCc5cccc(F)c5)c(Cl)c4)c3s2)C1`
Response given: N

---

System: MCF7 breast
protocol_description: NCI tumour cell line growth inhibition, 48 h
readout: TGI

Solved cases below.
compound | assay_system | TGI
COc1cc2c(cc1Cc1c(F)cccc1Cl)nc(-c1c(F)cccc1Cl)n2Cc1c(F)cccc1Cl | MCF7 breast | > 100 µM
CCOC(=O)c1nc2cc(C(F)(F)F)ccc2nc1Nc1ccc(C(=O)NC(C(=O)OCC)C(=O)OCC)cc1 | MCF7 breast | 57.2 µM

Pending compound:
Challenge: Output measured TGI for this item: CCOC(=O)/C(O)=C1\C(=O)N(C)C(=O)C1c1cccc(OC)c1 (stereo not drawn)
Response given: > 100 µM

From: PubChem BioAssay (NCI)
